- measured-target: adrenergic beta-receptor (Cavia porcellus)
- Construct: Tracheas excised from adult guinea pigs; from tissue; host or cells: guinea pig trachea (spirally cut segments)
- Sequence (Q8K4Z4 whole entry): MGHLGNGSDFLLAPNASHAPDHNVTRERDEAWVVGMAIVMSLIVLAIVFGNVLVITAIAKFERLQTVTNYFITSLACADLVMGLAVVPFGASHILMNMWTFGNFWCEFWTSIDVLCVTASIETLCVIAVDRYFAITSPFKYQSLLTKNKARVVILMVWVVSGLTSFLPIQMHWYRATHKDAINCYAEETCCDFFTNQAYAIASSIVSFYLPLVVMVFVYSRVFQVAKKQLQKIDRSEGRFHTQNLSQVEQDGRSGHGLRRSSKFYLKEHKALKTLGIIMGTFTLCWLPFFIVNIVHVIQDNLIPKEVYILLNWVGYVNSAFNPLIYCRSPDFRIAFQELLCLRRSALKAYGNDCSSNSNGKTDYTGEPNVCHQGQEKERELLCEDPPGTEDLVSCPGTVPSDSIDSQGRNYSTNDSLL
- method: Beta-adrenergic blocking activity in the isolated guinea pig trachea (isoproterenol)
- Assay type: cell-based
- measurement-conditions: potency relative to propanol (equals one); isoproterenol 0.1 mcg./ml.
measured-quantity: Beta-Adrenergic Blocking Potency

Past entries and their recorded results:
CCCCCCCCNCC(O)COc1ccc(SC)cc1C (stereo not shown)	< 0.0006
CCCCCCCCNCC(O)COc1ccccc1SC.Cl (stereo not shown)	0.004
CSc1ccc(OCC(O)CNC(C)C)cc1 (stereo not shown) [Test agent B, reference compound]	0.2
CC(C)Sc1ccc(OCC(O)CNCCC2CCCCC2)cc1 (stereo not shown)	< 0.0006
CCCCCCCCNCC(O)COc1ccc(SC(C)C)cc1.Cl (stereo not shown)	< 0.001
CCCCCCCCCCCCNCC(O)COc1ccc(SC(C)C)cc1.Cl (stereo not shown)	< 0.001
CC(C)Sc1ccc(OCC(O)CNCCCCC2CCCCC2)cc1 (stereo not shown)	< 0.002
CSc1ccccc1OCC(O)CNC(C)C (stereo not shown) [Test agent A, reference compound]	1.0

GET /values?readout=Beta-Adrenergic Blocking Potency&item= CCCCCCCCNCC(O)COc1cccc(SC(C)C)c1.Cl (stereo not shown)
< 0.001

GET /values?readout=Beta-Adrenergic Blocking Potency&item= CCCCCCCCNCC(O)COc1ccc(SC)cc1 (stereo not shown)
< 0.001
